Target: α1β3γ2 human GABAARs (Homo sapiens, UniProt P14867+P18507)
Construct: expressed in transfected cells; host or cells: mouse fibroblasts, stably expressing; membranes prepared
Sequence (P14867 28-456, one chain of several): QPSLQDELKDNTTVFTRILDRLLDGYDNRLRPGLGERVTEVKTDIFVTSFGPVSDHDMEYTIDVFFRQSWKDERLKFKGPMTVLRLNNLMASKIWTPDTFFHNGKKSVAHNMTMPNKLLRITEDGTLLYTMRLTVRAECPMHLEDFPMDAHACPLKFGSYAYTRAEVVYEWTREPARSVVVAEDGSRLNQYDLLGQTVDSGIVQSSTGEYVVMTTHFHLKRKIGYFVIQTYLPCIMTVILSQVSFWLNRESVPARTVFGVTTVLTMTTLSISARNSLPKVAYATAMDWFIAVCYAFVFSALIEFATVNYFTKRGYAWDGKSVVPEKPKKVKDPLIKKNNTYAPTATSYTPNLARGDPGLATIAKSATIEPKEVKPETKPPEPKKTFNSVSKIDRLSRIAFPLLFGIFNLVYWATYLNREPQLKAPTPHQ
Test: [^3H]flumazenil in vitro binding assay, α1β3γ2
Settings: mouse fibroblast membranes, 4 nM [^3H]flumazenil, Cheng-Prusoff; mean ± SEM of n = 4 separate assays; read-out: Affinity at human GABAAR subtypes, α1β3γ2 (mean Ki)
quantity: pKi
Numbers only, as −log10 of the molar value.

Q: Requested read-out: pKi. Entry: CCOC(=O)c1ncn2c1CN(C)C(=O)c1cc(O)ccc1-2 [OHMZ, Flumazenil impurity B]
A: 8.27

* * *

Target: α5β3γ2 human GABAARs (Homo sapiens, UniProt P18507+P31644)
Construct: expressed in transfected cells; host or cells: mouse fibroblasts, stably expressing; membranes prepared
Sequence (P31644 32-462): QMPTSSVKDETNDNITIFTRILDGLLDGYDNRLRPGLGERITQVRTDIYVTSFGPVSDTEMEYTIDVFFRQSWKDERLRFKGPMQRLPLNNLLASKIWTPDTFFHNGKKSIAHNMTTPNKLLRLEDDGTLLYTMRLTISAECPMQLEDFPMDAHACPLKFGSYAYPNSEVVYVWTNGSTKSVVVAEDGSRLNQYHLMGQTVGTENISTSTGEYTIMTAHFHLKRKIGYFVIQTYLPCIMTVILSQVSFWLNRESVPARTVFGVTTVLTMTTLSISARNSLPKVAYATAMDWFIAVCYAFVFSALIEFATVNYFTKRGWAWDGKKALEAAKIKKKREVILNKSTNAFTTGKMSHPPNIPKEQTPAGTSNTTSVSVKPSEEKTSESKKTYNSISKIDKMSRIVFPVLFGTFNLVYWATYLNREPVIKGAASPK
Sequence (P28472 26-473 partner): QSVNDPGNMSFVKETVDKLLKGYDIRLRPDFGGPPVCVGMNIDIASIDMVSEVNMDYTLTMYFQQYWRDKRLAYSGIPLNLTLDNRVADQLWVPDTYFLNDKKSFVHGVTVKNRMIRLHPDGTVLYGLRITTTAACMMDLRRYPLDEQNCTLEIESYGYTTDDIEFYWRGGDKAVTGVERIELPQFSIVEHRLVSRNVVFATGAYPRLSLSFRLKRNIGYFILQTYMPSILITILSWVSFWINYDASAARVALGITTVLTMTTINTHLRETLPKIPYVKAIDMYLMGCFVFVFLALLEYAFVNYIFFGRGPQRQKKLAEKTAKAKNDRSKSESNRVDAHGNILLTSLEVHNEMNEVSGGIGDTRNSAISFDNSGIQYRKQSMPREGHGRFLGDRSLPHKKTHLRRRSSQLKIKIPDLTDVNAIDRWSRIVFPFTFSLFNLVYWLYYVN
Sequence (P18507 40-475): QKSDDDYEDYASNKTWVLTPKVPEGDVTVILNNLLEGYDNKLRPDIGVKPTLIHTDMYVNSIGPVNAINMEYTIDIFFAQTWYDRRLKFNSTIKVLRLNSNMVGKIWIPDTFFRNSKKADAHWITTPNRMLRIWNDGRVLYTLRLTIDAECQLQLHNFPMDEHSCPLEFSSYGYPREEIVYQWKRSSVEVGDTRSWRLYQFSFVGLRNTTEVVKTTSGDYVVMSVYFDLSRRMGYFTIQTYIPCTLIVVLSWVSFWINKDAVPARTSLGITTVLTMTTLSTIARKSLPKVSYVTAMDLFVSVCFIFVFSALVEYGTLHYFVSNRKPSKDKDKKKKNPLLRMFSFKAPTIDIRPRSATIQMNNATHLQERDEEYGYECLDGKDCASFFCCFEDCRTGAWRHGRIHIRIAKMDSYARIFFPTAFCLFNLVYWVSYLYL
Test: [^3H]flumazenil in vitro binding assay, α5β3γ2
Conditions: mouse fibroblast membranes, 4 nM [^3H]flumazenil, Cheng-Prusoff; mean ± SEM of n = 4 separate assays; read-out: Affinity at human GABAAR subtypes, α5β3γ2 (mean Ki)
quantity: Ki (nM)
Answers are plain numbers, in nM.

Q: Hi! What's the reported Ki for `CCOC(=O)c1ncn2c1CN(C)C(=O)c1cc(O)ccc1-2` on α5β3γ2 human GABAARs (Homo sapiens, UniProt P18507+P31644)?
A: 0.5

* * *

Molecular target: α3β3γ2 human GABAARs (Homo sapiens, UniProt P18507+P34903)
Construct: expressed in transfected cells; host or cells: mouse fibroblasts, stably expressing; membranes prepared
Sequence (P34903 29-492): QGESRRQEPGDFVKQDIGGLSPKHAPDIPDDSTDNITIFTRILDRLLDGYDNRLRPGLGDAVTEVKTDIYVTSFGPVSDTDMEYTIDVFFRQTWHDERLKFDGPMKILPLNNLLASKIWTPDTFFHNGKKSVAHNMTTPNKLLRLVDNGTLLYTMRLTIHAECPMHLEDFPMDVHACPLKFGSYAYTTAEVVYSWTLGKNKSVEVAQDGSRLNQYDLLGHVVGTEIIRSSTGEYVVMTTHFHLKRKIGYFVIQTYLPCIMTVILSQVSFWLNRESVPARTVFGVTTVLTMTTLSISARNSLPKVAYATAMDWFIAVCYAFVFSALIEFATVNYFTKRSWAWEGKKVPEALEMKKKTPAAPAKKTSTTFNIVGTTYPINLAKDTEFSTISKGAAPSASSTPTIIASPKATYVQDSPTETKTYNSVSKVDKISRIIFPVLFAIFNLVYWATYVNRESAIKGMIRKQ
Sequence (P28472 26-473 partner): as the sequence (P28472 26-473 partner) above
Sequence (P18507 40-475): as the sequence (P18507 40-475) above
Assay: [^3H]flumazenil in vitro binding assay, α3β3γ2
Settings: mouse fibroblast membranes, 4 nM [^3H]flumazenil, Cheng-Prusoff; mean ± SEM of n = 4 separate assays; read-out: Affinity at human GABAAR subtypes, α3β3γ2 (mean Ki)
quantity: Ki (nM)
Numbers only, in nM.

Q: Hi! What's the reported Ki for CCOC(=O)c1ncn2c1CN(C)C(=O)c1cc(O)ccc1-2 [OHMZ, Flumazenil impurity B] on α3β3γ2 human GABAARs (Homo sapiens, UniProt P18507+P34903)?
A: 2.7

* * *

Biological target: α5β3γ2 human GABAARs (Homo sapiens, UniProt P18507+P31644)
Construct: expressed in transfected cells; host or cells: mouse fibroblasts, stably expressing; membranes prepared
Experiment: [^3H]flumazenil in vitro binding assay, α5β3γ2
Experimental: These samples were serially diluted in 100% DMSO in half-log units such that when 5 µl were added into a total assay volume of 500 µl, the final DMSO concentration in the assay was 1%. In brief, mouse fibroblasts stably expressing the four subtypes of human GABAARs that contain a benzodiazepine binding site (i.e., α1-, α2-, α3- and α5β3γ2) were grown, harvested, and membranes were prepared and frozen at -80 °C until required. […]
quantity: Ki (nM)
Give bare numbers, in nM.

Q: Requested read-out: Ki. Entry: CCOC(=O)c1ncn2c1CN(C)C(=O)c1ccccc1-2 [HMZ]
A: 1.7

* * *

Target: α2β3γ2 human GABAARs (Homo sapiens, UniProt P18507+P47869)
Construct: expressed in transfected cells; host or cells: mouse fibroblasts, stably expressing; membranes prepared
Sequence (P47869 29-451, one chain of several): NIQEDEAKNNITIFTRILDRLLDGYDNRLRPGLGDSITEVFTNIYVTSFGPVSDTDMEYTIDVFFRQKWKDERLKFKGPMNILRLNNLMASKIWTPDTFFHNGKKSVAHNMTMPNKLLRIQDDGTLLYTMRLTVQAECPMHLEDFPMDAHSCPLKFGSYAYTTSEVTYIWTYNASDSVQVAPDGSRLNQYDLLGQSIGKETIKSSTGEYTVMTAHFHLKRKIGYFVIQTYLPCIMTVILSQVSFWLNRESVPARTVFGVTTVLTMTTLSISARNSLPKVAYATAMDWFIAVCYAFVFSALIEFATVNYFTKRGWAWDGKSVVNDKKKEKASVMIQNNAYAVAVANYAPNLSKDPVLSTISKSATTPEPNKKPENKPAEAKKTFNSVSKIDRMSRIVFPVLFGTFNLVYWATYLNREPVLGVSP
Assay: [^3H]flumazenil in vitro binding assay, α2β3γ2
Settings: read-out: Affinity at human GABAAR subtypes, α2β3γ2 (mean Ki)
quantity: Ki

Q: Requested read-out: Ki. Entry: CCOC(=O)c1ncn2c1CN(C)C(=O)c1ccccc1-2 [HMZ]
A: 15 nM

* * *

Molecular target: α2β3γ2 human GABAARs (Homo sapiens, UniProt P18507+P47869)
Construct: expressed in transfected cells; host or cells: mouse fibroblasts, stably expressing; membranes prepared
Test: [^3H]flumazenil in vitro binding assay, α2β3γ2
Details: mouse fibroblast membranes, 4 nM [^3H]flumazenil, Cheng-Prusoff; mean ± SEM of n = 4 separate assays; read-out: Affinity at human GABAAR subtypes, α2β3γ2 (mean Ki)
quantity: Ki (nM)
Answers are plain numbers, in nM.

Q: Requested read-out: Ki. Entry: `CCOC(=O)c1ncn2c1CN(C)C(=O)c1cc(O)ccc1-2`
A: 7.3
